Please respond with reported TGI for every item in the list.
Tested on: HS 578T breast
Assay notes: NCI tumour cell line growth inhibition, 48 h

## Input For the compound CC(C)(CN)CN , give its measured TGI value.
## Output > 100 µM

## Input Give reported TGI value for O=C(CCCn1cnc([N+](=O)[O-])n1)NCCn1ccnc1[N+](=O)[O-]
## Output > 100 µM

## Input Determine from records and report TGI for CC(=O)NNc1nc(C)c(C(/C=C/c2ccc3c(c2)OCO3)=N/Nc2ccccc2)s1
## Output > 100 µM

## Input Respond only with TGI recorded for CN1CC2=C(OC(N)=C(C#N)C2c2cccs2)/C(=C/c2cccs2)C1 (stereo not given)
## Output > 100 µM

## Input Give reported TGI value for O=c1oc2cc(OS(=O)(=O)c3ccc(F)cc3)ccc2c2c1CCCCC2
## Output > 100 µM

###

Test system: NCI-H460 lung
Assay notes: NCI tumour cell line growth inhibition, 48 h
Readout type: TGI

## Input Give me measured TGI, please, for this compound: Cn1c2c(c3ccccc31)CCN(CCCCN1CCc3c(n(C)c4ccccc34)C1=O)C2
## Output > 100 µM

## Input Tell me its TGI given COc1cc(O)c([C@@H]2C[C@H](CCc3ccc(O)cc3)O[C@H](c3ccc(O)cc3)C2)c(O)c1C(=O)/C=C/c1ccc(O)cc1 as the entry.
## Output 7.49 µM

## Input Tell us which TGI value is on record for COc1cc(CCc2ccc(OCCN(C)C)cc2)cc(OC)c1OC
## Output > 100 µM

## Input // fetch TGI given entry COc1cc(OC)c([C@@H]2OC(=O)C3C2C(=O)O[C@H]3c2cc(OC)c(OC)cc2OC)cc1OC (stereo partly specified)
## Output > 100 µM

## Input Specify measured TGI for COc1cc(C2C=C(c3cccc(NC(C)=O)c3)Nc3ncnn32)cc(OC)c1OC (stereo unspecified) .
## Output > 100 µM

## Input Tell me TGI reported for Cn1ccnc1S/C(=C\C=C(C#N)C#N)c1ccc(Cl)cc1
## Output 27.2 µM

###

Test system: CCRF-CEM leukemia
Assay notes: NCI tumour cell line growth inhibition, 48 h; in the data active = GI50 below about 0.43 µM; inactive = the rest
Could you please pick one outcome from this set? active, inactive

## Input Hi team, can someone confirm the assay call for C=C1CC2(OC1=O)C(=O)N(CCCCCCCN1C(=O)C3(CC(=C)C(=O)O3)c3ccccc31)c1ccccc12 (stereo not given) ?
## Output inactive

## Input Please share the test call associated with CC(=O)Nc1ccc2c(c1)c(C1=C(c3cn(C)c4ccccc34)C(=O)NC1=O)cn2C .
## Output inactive

## Input Called result for COc1nc(N(C)O)nc(N(C)O)n1
## Output inactive

## Input Call for entry O=C(CCCCCCSc1nc(-c2ccccc2)cc(-c2ccc(Cl)cc2)n1)NO :
## Output inactive

## Input Kindly provide the recorded test outcome for the following compound: COc1ccc2nc(N/N=C(\C)c3ccccn3)cc(C)c2c1
## Output active

###

System: HOP-62 NSCLC
Assay notes: NCI tumour cell line growth inhibition, 48 h
Kindly supply the reported TGI values for the records listed here.

## Input Kindly indicate its recorded TGI. Item: O=[N+]([O-])c1cccc(-c2csc(N=Nc3c(O)[nH]c4ccccc34)n2)c1
## Output 59.6 µM

## Input State its TGI for this compound: COc1cc(C2C=C(c3cccc(NC(C)=O)c3)Nc3ncnn32)cc(OC)c1OC (stereo not drawn)
## Output > 100 µM

## Input # return recorded TGI for entry CC(=O)O/C=C(/C=C/OC(C)=O)C(C/C=C(\C)C#CC=C(C)C)OC(C)=O (stereo not drawn)
## Output > 100 µM

## Input Provide one value: measured TGI of COC1C(O)CC(OC2C(C)OC(Oc3cc(O)c4c(O)c5c(cc4c3)C[C@@H]([C@H](OC)C(=O)[C@@H](O)[C@@H](C)O)[C@H](OC3CC(OC4CC(OC6CC(C)(O)C(O)C(C)O6)C(O)C(C)O4)C(O)C(C)O3)C5=O)CC2OC(C)=O)OC1C (stereo partly drawn)
## Output > 100 µM

## Input Provide only the value of recorded TGI for Cc1ccc(N=Nc2c(C)nn(C(=O)CC(=O)Nc3ccccc3)c2C)cc1C
## Output > 100 µM

## Input Look up and report measured TGI for this entry: O=[N+]([O-])c1ccc(C(c2c[nH]c3ccccc23)c2c[nH]c3ccccc23)cc1
## Output 30.3 µM

## Input Supply TGI value. Item: COc1cccc2cc(C)c(C(=O)c3ccccc3)nc12
## Output > 100 µM

## Input Provide only the value of recorded TGI for Cn1c(=O)nc2n(-c3ccc(Cl)cc3)c3ccc(Cl)cc3nc-2c1=O
## Output 49.5 µM

## Input Give TGI for CC(=O)C1CC(C)=CCC12C(=O)Nc1ccccc12 (stereo not drawn)
## Output > 100 µM

## Input Give me measured TGI, please, for this compound: Cn1c(=O)c2c(nc(NCCCCl)n2CC(=O)O)n(C)c1=O
## Output > 100 µM

## Input Name the recorded TGI of the item COc1cc(OC)c2c(O)cc(CC(C)O)cc2c1 (stereo not drawn) in your answer.
## Output > 100 µM

## Input Supply reported TGI belonging to this compound: N=C(N)SCCON1C(=O)c2ccccc2C1=O
## Output > 100 µM

## Input Tell us which TGI value is on record for CN(C)c1cccc2c(S(=O)(=O)N[C@H]3CC[C@H]4[C@@H]5CCc6cc(O)ccc6[C@H]5CC[C@]34C)cccc12
## Output 13.9 µM

###

System: EKVX NSCLC
Assay notes: NCI tumour cell line growth inhibition, 48 h; in the data active = GI50 below about 0.43 µM; inactive = the rest
The categories you may choose from are active, inactive

## Input In this assay, the call recorded for COc1ccc2c(c1)[nH]c(=O)c1c3cc(C)c(C)cc3cn21 was what?
## Output active

## Input Please let me know the test result on file for CCOC(=O)c1ccc(NC(=O)N2CC(C)OC(C)C2)cc1 (stereo unspecified) .
## Output inactive

## Input For C=C1C(=O)O[C@H]2[C@H]1CC/C(Cn1cc(CNC(=O)Cc3cn(C(=O)c4ccc(Cl)cc4)c4ccc(OC)cc34)nn1)=C\CC[C@@]1(C)O[C@@H]21 , what call appears in the results of this test?
## Output inactive

## Input Please let me know the test result on file for CCC[CH2][Sn-]([CH2]CCC)([CH2]CCC)[O]c1cc(Cl)c(Cl)cc1Cl .
## Output active

## Input Status in this test for O=C(NNc1nc(Cl)nc(N2CCN(C(c3ccccc3)c3ccccc3)CC2)n1)c1ccccc1 ?
## Output inactive

## Input What is the recorded call for this molecule in the test? CS(=O)(=O)CCNCc1nc(-c2ccc3ncnc(Nc4ccc(F)c(Cl)c4)c3c2)cs1
## Output active

###

Test system: BT-549 breast
Assay notes: NCI tumour cell line growth inhibition, 48 h
Would you mind telling me the reported TGI of each entry?

## Input Supply recorded TGI for CCOC(=O)c1ccc(NC(=O)N2CC(C)OC(C)C2)cc1 (stereo not drawn) here.
## Output > 100 µM

## Input Please give the documented TGI of COC(=O)c1cc(C)ccc1CC(Cc1cccc(C)c1)C(=O)OC (stereo not drawn)
## Output > 100 µM

## Input Please report TGI for the following compound: Cc1cnoc1NC1=CC(=O)C(=O)c2ccccc21
## Output > 100 µM

###

Tested on: HCC-2998 colon
Assay notes: NCI tumour cell line growth inhibition, 48 h
Provide the reported TGI of each item.
Your answer is read as µM, so omit the unit and give the number.

## Input Indicate its recorded TGI; the compound in question is Cc1ccc(C(=O)N(C2CCCCC2)C2CCCCC2)cc1N=NN(C)C
## Output 29.4

## Input Find the measured TGI of COc1cccc(C2CC(C)(N3CCCC3)Oc3cc4c(cc32)OCO4)c1O (centres undefined) and report it.
## Output 48.2

###

System: HCT-116 colon
Assay notes: NCI tumour cell line growth inhibition, 48 h
Use satisfied when the recorded TGI is no lower than 9 µM; use not satisfied when it is lower.

## Input Please indicate if the recorded TGI for COc1cc(C2CC(c3ccc(C)cc3)=NN2C=O)ccc1Oc1ccnc2cc(Cl)ccc12 (centres undefined) meets or exceeds 9 µM.
## Output satisfied

## Input Test whether the compound O=c1c2ccccc2[nH]c(=S)n1-c1ccc(Br)cc1 records TGI of 9 µM or higher.
## Output satisfied

## Input Please tell me: is the compound CC(=O)NCCCCNCCCNC(C)=O at or over 9 µM in terms of TGI?
## Output satisfied

## Input Item CC(=O)O/C=C(/C=C/OC(C)=O)C(C/C=C(\C)C#CC=C(C)C)OC(C)=O (centres undefined) with TGI of 9 µM or above?
## Output satisfied

## Input Threshold query (TGI >= 9 µM) on Oc1ccc(Cl)cc1C1=N/C(=N\CN2CCN(C/N=C3/N=C(c4cc(Cl)ccc4O)CC(c4ccccc4)N3)CC2)NC(c2ccccc2)C1 (centres undefined)
## Output satisfied

## Input Decide: TGI of Cc1nc2ccc(S(=O)(=O)Nc3ccc(Cl)cc3)cc2c(=O)n1NC(=O)CNc1ccc(Cl)cc1 >= 9 µM?
## Output satisfied

## Input Could you tell me if the measured TGI of CCOC(=O)c1ccc(NC(=O)N2CC(C)OC(C)C2)cc1 (centres undefined) reaches 9 µM or more?
## Output satisfied

## Input In plain terms: is recorded TGI at least 9 µM for COc1cc(CCc2ccc(OCCN(C)C)cc2)cc(OC)c1OC ?
## Output satisfied

## Input Is it the case that Cc1c(C)c(C)c(-n2[nH]c(=O)n(C)c2=O)c(C)c1C has TGI reaching or exceeding 9 µM?
## Output satisfied

## Input Answer whether TGI of Cn1c(=O)c2c(nc(NCCCCl)n2CC(=O)O)n(C)c1=O is greater than or equal to 9 µM.
## Output satisfied

## Input Hi team, for CCNC(=O)Nc1cccc(C)n1 , is the recorded TGI at or above 9 µM?
## Output satisfied

## Input Hi team, for O=C(CCCCCCSc1nc(-c2ccccc2)cc(-c2ccc(Cl)cc2)n1)NO , is the recorded TGI at or above 9 µM?
## Output satisfied

## Input Exam item: decide whether the reported TGI for CN(C)c1ccc(N2C(=S)SC(=Nc3ccccc3)C2=Nc2ccccc2)cc1 is at least 9 µM.
## Output satisfied

## Input Evaluate CC(=O)C(C(C)=O)=C1CCCC(O)O1 (centres undefined) : TGI at minimum 9 µM?
## Output satisfied

## Input Identify whether the reported TGI of the following compound is 9 µM or greater: C=CC[C@H]1[C@@H](O[Si](C)(C)C(C)(C)C)[C@H](n2ccc(=O)[nH]c2=O)O[C@@H]1CO[Si](C)(C)C(C)(C)C
## Output not satisfied

## Input Exam item: decide whether the reported TGI for O=C(O)CSc1n[nH]c(-c2ccc(O)cc2)n1 is at least 9 µM.
## Output satisfied

## Input Evaluate C=C1C(=O)O[C@H]2[C@H]1CC/C(COC(=O)c1cc3cc(F)ccc3[nH]1)=C\CC[C@@]1(C)O[C@@H]21 : TGI at minimum 9 µM?
## Output not satisfied

## Input Reported TGI reaches at least 9 µM for CNC(P(=O)([O-])[O-])P(=O)([O-])[O-].N.N.[Pt+2] ?
## Output satisfied

## Input Does the compound COC(=O)c1cc(C)ccc1CC(Cc1cccc(C)c1)C(=O)OC (centres undefined) have recorded TGI that is 9 µM or more?
## Output satisfied

## Input hey, is TGI for this one >= 9 µM? CCOC(=O)[C@@]1(C)C=C2O[C@@H]3OC4(CCCCC4)O[C@@H]3C2=C2C(O)=CC=C(O)[C@]21C(=O)OC
## Output satisfied

## Input # bool: TGI of COC(=O)Cc1ccc2c(c1)Sc1ccc(CC(=O)OC)cc1N2C >= 9 µM
## Output satisfied

## Input Test whether the compound Cc1ccc(F)cc1NC(=O)O/N=C(\Cl)C(C)C records TGI of 9 µM or higher.
## Output satisfied

## Input Reported TGI reaches at least 9 µM for CC1=C(C(=O)Nc2c(C)cccc2C)C(c2ccc3c(c2)OCO3)C(C(=O)Nc2c(C)cccc2C)=C(C)N1 ?
## Output satisfied

## Input Has COc1ccc2nc(N/N=C(\C)c3ccccn3)cc(C)c2c1 a recorded TGI greater than or equal to 9 µM?
## Output not satisfied

## Input Form field: TGI at least 9 µM? Entry: O=C(CNc1nncs1)NO
## Output satisfied

## Input Decide: is the reported value of TGI for Cc1ccc2c(=O)cc(-c3csc4ccccc34)[nH]c2n1 equal to or greater than 9 µM?
## Output satisfied

## Input For this compound, is measured TGI 9 µM or higher? CCc1cccc(C(C)C)c1NC(=O)C(=O)C(Cc1nc2ccccc2[nH]c1=O)C(=O)OC (centres undefined)
## Output satisfied

## Input Test whether the compound COc1ccc2c(c1)[nH]c(=O)c1c3cc(C)c(C)cc3cn21 records TGI of 9 µM or higher.
## Output not satisfied

## Input Check the entry O=C(CN1CCN(c2ncccn2)CC1)Nc1ccc(Cl)cc1C(=O)c1ccccc1Cl : does TGI equal or exceed 9 µM?
## Output satisfied

## Input Can Cc1ccc([N+](=O)[O-])cc1S(=O)(=O)Nc1ccc(C2=NN(c3ccc([N+](=O)[O-])cc3[N+](=O)[O-])C(c3ccccc3)C2)cc1 (centres undefined) be said to have TGI at or above 9 µM?
## Output satisfied

## Input Please check the record CC(C)/C(Cl)=N/OC(=O)Nc1ccc(F)c(Cl)c1 and state if its TGI is at or above 9 µM.
## Output not satisfied

## Input For this compound, is measured TGI 9 µM or higher? O=C(c1ccc(Cl)cc1)c1ccc(OCC(=O)N2CCN(c3ccccc3)CC2)cc1
## Output satisfied

## Input Reported TGI reaches at least 9 µM for COC(=O)C12Oc3ccc(-c4ccc5c(c4O)C(=O)C4=CCC(C)C(O)C4(C(=O)OC)O5)c(O)c3C(=O)C1=CCC(C)C2O (centres undefined) ?
## Output not satisfied

## Input Test whether the compound CN1CC[C@@H](c2c(O)cc(O)c3c(=O)cc(-c4ccccc4Cl)oc23)[C@@H](O)C1 records TGI of 9 µM or higher.
## Output satisfied

Origin of the recorded values: PubChem BioAssay (NCI)
